System: release of LH
Assay: Release of LH in rats after sc injection
Assay type: in vivo
Conditions: release 60 min. after sc injection, dosage of peptide 3000 ng
Source text: The data on the release of LH and FSH in rats by modifications of LHRH with one structural change are in Table II. Exclusive of the salmon-LHRH, only one of the six decapeptides with two structural changes had significant activity.
Non-standard residues stand in square brackets, D forms with d. Residues, ends and D or L forms follow the SMILES beside them. pGlu = O=C1CC[C@@H](C(=O)O)N1
recorded_metric: LH (ng/mL)
Respond numerically; units are ng/mL and should not be typed.

- molecule: "NC(=O)CC[C@H](NC(=O)[C@H](Cc1c[nH]c2ccccc12)NC(=O)CNC(=O)[C@H](Cc1c[nH]cn1)NC(=O)[C@H](CO)NC(=O)[C@H](Cc1c[nH]c2ccccc12)NC(=O)[C@H](Cc1c[nH]cn1)NC(=O)[C@@H]1CCC(=O)N1)C(=O)N1CCC[C@H]1C(=O)NCC(N)=O [[His^5 Trp^7 Gln^8]--LHRH] ([pGlu]HWSHGWQPG-NH2)"
  system: "release of LH"
  unit: "ng/mL"
  LH: 53

Q: Look up and state reported LH for NC(=O)CC[C@H](NC(=O)[C@H](Cc1c[nH]c2ccccc12)NC(=O)CNC(=O)[C@H](Cc1ccc(O)cc1)NC(=O)[C@H](CO)NC(=O)[C@H](Cc1c[nH]c2ccccc12)NC(=O)[C@H](Cc1c[nH]cn1)NC(=O)[C@@H]1CCC(=O)N1)C(=O)N1CCC[C@H]1C(=O)NCC(N)=O [[Trp^7 Gln^8]--LHRH] ([pGlu]HWSYGWQPG-NH2)
Result: 7.5

---

Test system: release of LH
Assay: Release of LH in rats after sc injection
Format: in vivo
Details: release 60 min. after sc injection, dosage of peptide 300 ng
Non-standard residues stand in square brackets, D forms with d. Residues, ends and D or L forms follow the SMILES beside them. pGlu = O=C1CC[C@@H](C(=O)O)N1
recorded_metric: LH (ng/mL)
Response body: numeric value in ng/mL, unit text excluded.

// below: answered molecules
- molecule: "CC(C)C[C@H](NC(=O)CNC(=O)[C@H](Cc1c[nH]cn1)NC(=O)[C@H](CO)NC(=O)[C@H](Cc1c[nH]c2ccccc12)NC(=O)[C@H](Cc1c[nH]cn1)NC(=O)[C@@H]1CCC(=O)N1)C(=O)N[C@@H](CCC(N)=O)C(=O)N1CCC[C@H]1C(=O)NCC(N)=O [[His^5 Gln^8]--LHRH] ([pGlu]HWSHGLQPG-NH2)"
  LH (ng/mL): 3.3
- molecule: "NC(=O)CNC(=O)[C@@H]1CCCN1C(=O)[C@H](Cc1ccc(O)cc1)NC(=O)[C@H](Cc1c[nH]c2ccccc12)NC(=O)CNC(=O)[C@H](Cc1ccc(O)cc1)NC(=O)[C@H](CO)NC(=O)[C@H](Cc1c[nH]c2ccccc12)NC(=O)[C@H](Cc1c[nH]cn1)NC(=O)[C@@H]1CCC(=O)N1 [[Trp^7 Tyr^8]--LHRH] ([pGlu]HWSYGWYPG-NH2)"
  LH (ng/mL): 2.8

Attention now turns to another entry.
Q: Lab note: release of LH assay, enter LH for N=C(N)NCCC[C@H](NC(=O)[C@H](Cc1c[nH]c2ccccc12)NC(=O)CNC(=O)[C@H](Cc1c[nH]cn1)NC(=O)[C@H](CO)NC(=O)[C@H](Cc1c[nH]c2ccccc12)NC(=O)[C@H](Cc1c[nH]cn1)NC(=O)[C@@H]1CCC(=O)N1)C(=O)N1CCC[C@H]1C(=O)NCC(N)=O [[His^5 Trp^7]--LHRH] ([pGlu]HWSHGWRPG-NH2) here
Result: 26.0
